Molecular target: UniProtKB P56718
Experiment: FLIPR Ca2+ Flux Assay, orexin-1 receptor
Format: cell-based
Conditions: CHO cells expressing the rat orexin-1 receptor; agonist 70 pM Ala-6,12 human orexin-A; read-out: hOX1R FLIPR IC50
Readings of pIC50 for the listed compounds
Just so you know, pIC50 here is -log10 of the concentration in molar units; reply with that number alone.

Worked cases, pIC50 given:
Ask: GET /values?readout=pIC50&item= CSc1ccccc1C(=O)N1C[C@H](Oc2nccc(C#N)c2C)CC[C@H]1C [Example 61]
Result: 5.10

Ask: GET /values?readout=pIC50&item= Cc1ccc(C(=O)N2C[C@H](Oc3nccc(C#N)c3C)CC[C@H]2C)c(-n2nccn2)c1 [Example 8]
Result: 6.06

Ask: GET /values?readout=pIC50&item= Cc1c(C#N)ccnc1O[C@@H]1CC[C@@H](C)N(C(=O)c2cc(F)cnc2-c2nccs2)C1 [Example 35]
Result: 6.34

Ask: GET /values?readout=pIC50&item= Cc1c(C#N)ccnc1O[C@@H]1CC[C@@H](C)N(C(=O)c2ccccc2-c2cnn(C)c2)C1 [Example 36]
Result: 5.62

Ask: GET /values?readout=pIC50&item= COc1c(C#N)ccnc1O[C@@H]1CC[C@@H](C)N(C(=O)c2cc(C)ccc2-n2nccn2)C1 [Example 103]
Result: 5.99

Ask: GET /values?readout=pIC50&item= COc1c(C#N)ccnc1O[C@@H]1CC[C@@H](C)N(C(=O)c2ccc(F)cc2-c2ncccn2)C1 [Example 110]
Result: 5.91

Ask: GET /values?readout=pIC50&item= Cc1c(C#N)ccnc1O[C@@H]1CC[C@@H](C)N(C(=O)c2ccccc2C2CC2)C1 [Example 16]
Result: 5.76

Ask: GET /values?readout=pIC50&item= CSc1c(C#N)ccnc1O[C@@H]1CC[C@@H](C)N(C(=O)c2ccccc2-n2nccn2)C1 [Example 95]
Result: 6.51

Ask: GET /values?readout=pIC50&item= Cc1c(C#N)ccnc1O[C@@H]1CC[C@@H](C)N(C(=O)c2ccccc2N2CCCC2)C1 [Example 29]
Result: 5.51

Ask: GET /values?readout=pIC50&item= Cc1c(C#N)ccnc1O[C@@H]1CC[C@@H](C)N(C(=O)c2cc(Cl)ccc2-n2nccn2)C1 [Example 3]
Result: 5.32

Next:
Ask: GET /values?readout=pIC50&item= Cc1ccc(C(=O)N2C[C@H](Oc3nccc(C#N)c3C)CC[C@H]2C)c(-c2ncccn2)c1 [Example 76]
Result: 5.90

Ask: GET /values?readout=pIC50&item= Cc1c(C#N)ccnc1O[C@@H]1CC[C@@H](C)N(C(=O)c2ccsc2-c2cscn2)C1 [Example 31]
Result: 5.69

Ask: GET /values?readout=pIC50&item= Cc1c(C#N)ccnc1O[C@@H]1CC[C@@H](C)N(C(=O)c2ccc(F)cc2-n2nccn2)C1 [Example 9]
Result: 5.97

Ask: GET /values?readout=pIC50&item= Cc1noc(-c2ccccc2C(=O)N2C[C@H](Oc3nccc(C#N)c3C)CC[C@H]2C)n1 [Example 58]
Result: 6.13

Ask: GET /values?readout=pIC50&item= Cc1c(C#N)ccnc1O[C@@H]1CC[C@@H](C)N(C(=O)c2sccc2-c2cscn2)C1 [Example 38]
Result: 5.79

Ask: GET /values?readout=pIC50&item= Cc1c(C#N)ccnc1O[C@@H]1CC[C@@H](C)N(C(=O)c2sccc2-c2ncccn2)C1 [Example 75]
Result: 5.85

Ask: GET /values?readout=pIC50&item= COc1ccc(C(=O)N2C[C@H](Oc3nccc(C#N)c3C)CC[C@H]2C)c(-c2cnn(C)c2)n1 [Example 80]
Result: 5.00

Ask: GET /values?readout=pIC50&item= Cc1c(C#N)ccnc1O[C@@H]1CC[C@@H](C)N(C(=O)c2cn(C)nc2-c2ccccc2)C1 [Example 45]
Result: 5.30

Ask: GET /values?readout=pIC50&item= Cc1c(C#N)ccnc1O[C@@H]1CC[C@@H](C)N(C(=O)c2ccc(OCF)cc2-n2nccn2)C1 [Example 64]
Result: 5.35

Ask: GET /values?readout=pIC50&item= Cc1c(C#N)ccnc1O[C@@H]1CC[C@@H](C)N(C(=O)c2ccc(F)cc2C2CC2)C1 [Example 53]
Result: 5.24

Ask: GET /values?readout=pIC50&item= COc1c(C#N)ccnc1O[C@@H]1CC[C@@H](C)N(C(=O)c2ccccc2-n2nccn2)C1 [Example 96]
Result: 5.90

###

Target: rat orexin-1 receptor (Rattus norvegicus (Rat), UniProt P56718)
Sequence (P56718 whole entry): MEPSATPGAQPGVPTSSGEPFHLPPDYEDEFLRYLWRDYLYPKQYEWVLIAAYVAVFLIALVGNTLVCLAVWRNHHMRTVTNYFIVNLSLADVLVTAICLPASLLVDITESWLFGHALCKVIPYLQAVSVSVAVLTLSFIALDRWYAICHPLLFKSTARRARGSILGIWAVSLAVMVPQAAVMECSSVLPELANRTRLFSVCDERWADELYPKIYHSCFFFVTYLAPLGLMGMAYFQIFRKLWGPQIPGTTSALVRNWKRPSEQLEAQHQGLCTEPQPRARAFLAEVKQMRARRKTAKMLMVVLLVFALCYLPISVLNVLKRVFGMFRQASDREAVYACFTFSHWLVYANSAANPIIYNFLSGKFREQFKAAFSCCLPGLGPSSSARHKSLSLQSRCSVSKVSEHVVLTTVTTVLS
Assay: FLIPR Ca2+ Flux Assay, orexin-1 receptor
Format: cell-based
Conditions: read-out: hOX1R FLIPR IC50
Experimental: In a typical experiment the OX1 and OX2 receptor antagonistic activity of the compounds of the present invention was determined in accordance with the following experimental method. […] Within the Fluorescent Imaging Plate Reader (FLIPR, Molecular Devices), test compounds are added to the plate in a volume of 25 μl, incubated for 5 min and finally 25 μl of agonist is added. […]
Measurement Type: IC50 (nM)
Expressed in nM, but write only the number.

Ask: GET /values?readout=IC50&item= COc1c(C#N)ccnc1O[C@@H]1CC[C@@H](C)N(C(=O)c2cccc(F)c2-c2ncccn2)C1 [Example 109]
Result: 2850

###

Target: human orexin-2 receptor (Homo sapiens (Human), UniProt O43614)
Sequence (O43614 whole entry): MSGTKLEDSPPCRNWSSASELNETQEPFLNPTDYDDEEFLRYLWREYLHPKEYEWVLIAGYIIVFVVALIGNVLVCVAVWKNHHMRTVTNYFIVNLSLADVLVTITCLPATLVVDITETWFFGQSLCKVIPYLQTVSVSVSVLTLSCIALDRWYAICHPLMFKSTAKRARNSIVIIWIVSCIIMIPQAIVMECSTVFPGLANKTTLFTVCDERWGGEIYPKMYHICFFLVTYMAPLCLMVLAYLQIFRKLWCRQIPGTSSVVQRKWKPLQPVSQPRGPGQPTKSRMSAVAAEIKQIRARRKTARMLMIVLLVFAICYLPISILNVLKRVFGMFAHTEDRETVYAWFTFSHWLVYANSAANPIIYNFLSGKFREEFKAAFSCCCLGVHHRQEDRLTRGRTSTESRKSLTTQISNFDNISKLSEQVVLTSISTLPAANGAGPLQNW
Experiment: FLIPR Ca2+ Flux Assay, orexin-2 receptor
Type: cell-based
Conditions: CHO cells expressing the human orexin-2 receptor; agonist 70 pM Ala-6,12 human orexin-A; read-out: hOX2R FLIPR IC50
Measurement Type: pIC50
Just so you know, pIC50 here is -log10 of the concentration in molar units; reply with that number alone.

Worked cases, pIC50 given:
Ask: GET /values?readout=pIC50&item= "COc1c(C#N)ccnc1O[C@@H]1CC[C@@H](C)N(C(=O)c2cc(F)ccc2-c2ncccn2)C1"
Result: 7.74

Ask: GET /values?readout=pIC50&item= "Cc1c(C#N)ccnc1O[C@@H]1CC[C@@H](C)N(C(=O)c2cn(C)nc2-c2nccs2)C1"
Result: 6.95

Ask: GET /values?readout=pIC50&item= "Cc1noc(-c2ccccc2C(=O)N2C[C@H](Oc3nccc(C#N)c3C)CC[C@H]2C)n1"
Result: 7.92

Ask: GET /values?readout=pIC50&item= "Cc1cccc(C(=O)N2C[C@H](Oc3nccc(C#N)c3C)CC[C@H]2C)c1-n1nccn1"
Result: 8.05

Ask: GET /values?readout=pIC50&item= "Cc1c(C#N)ccnc1O[C@@H]1CC[C@@H](C)N(C(=O)c2cn(C)nc2-c2ccccc2)C1"
Result: 7.04

Ask: GET /values?readout=pIC50&item= "COc1ccc(C(=O)N2C[C@H](Oc3nccc(C#N)c3C)CC[C@H]2C)c(C2CC2)n1"
Result: 7.49

Ask: GET /values?readout=pIC50&item= "Cc1ccc(C(=O)N2C[C@H](Oc3nccc(C#N)c3C)CC[C@H]2C)c(C2CC2)c1"
Result: 7.68

// below: pIC50 requested for another molecule
Ask: GET /values?readout=pIC50&item= "COc1ccc(C(=O)N2C[C@H](Oc3nccc(C#N)c3C)CC[C@H]2C)c(-c2ccccn2)n1"
Result: 7.19

###

Molecular target: human orexin-2 receptor (Homo sapiens (Human), UniProt O43614)
Assay: FLIPR Ca2+ Flux Assay, orexin-2 receptor
Type: cell-based
Details: CHO cells expressing the human orexin-2 receptor; agonist 70 pM Ala-6,12 human orexin-A; read-out: hOX2R FLIPR IC50
pIC50: −log10 of the molar value.
Mark met for reported pIC50 of 8 or greater; mark not met for anything smaller.

Ask: Please check the record COc1ccc(C(=O)N2C[C@H](Oc3nccc(C#N)c3C)CC[C@H]2C)c(-c2ccccc2)n1 [Example 78] and state if its pIC50 is at or above 8.
Result: not met

Ask: Please check the record Cc1c(C#N)ccnc1O[C@@H]1CC[C@@H](C)N(C(=O)c2cc(F)ccc2-c2nccs2)C1 [Example 28] and state if its pIC50 is at or above 8.
Result: met

Ask: Please check the record Cc1c(C#N)ccnc1O[C@@H]1CC[C@@H](C)N(C(=O)c2ccccc2Oc2ccccc2)C1 [Example 30] and state if its pIC50 is at or above 8.
Result: not met

--- query ---
Ask: Please check the record COc1c(C#N)ccnc1O[C@@H]1CC[C@@H](C)N(C(=O)c2cccc(C)c2-n2nccn2)C1 [Example 101] and state if its pIC50 is at or above 8.
Result: not met

###

Molecular target: UniProtKB O43614
Assay: FLIPR Ca2+ Flux Assay, orexin-2 receptor
Format: cell-based
Settings: CHO cells expressing the human orexin-2 receptor; agonist 70 pM Ala-6,12 human orexin-A; read-out: hOX2R FLIPR IC50
Measurement Type: log10 of IC50 (log10 of the value in nM)
Answers are given as log10 of IC50 in nM.

Worked cases, log10 of IC50 given:
Ask: GET /values?readout=log10 of IC50&item= "Cc1c(C#N)ccnc1O[C@@H]1CC[C@@H](C)N(C(=O)c2ccccc2C(F)(F)F)C1"
Result: 1.32

Ask: GET /values?readout=log10 of IC50&item= "Cc1c(C#N)ccnc1O[C@@H]1CC[C@@H](C)N(C(=O)c2cc(C#N)ccc2-n2nccn2)C1"
Result: 1.60

Ask: GET /values?readout=log10 of IC50&item= "Cc1c(C#N)ccnc1O[C@@H]1CC[C@@H](C)N(C(=O)c2ccc(Br)nc2-n2nccn2)C1"
Result: 1.46

Ask: GET /values?readout=log10 of IC50&item= "Cc1c(C#N)ccnc1O[C@@H]1CC[C@@H](C)N(C(=O)c2sncc2-c2ccccc2)C1"
Result: 1.95

Ask: GET /values?readout=log10 of IC50&item= "Cc1c(C#N)ccnc1O[C@@H]1CC[C@@H](C)N(C(=O)c2c(F)cccc2-c2nccs2)C1"
Result: 0.85

Next:
Ask: GET /values?readout=log10 of IC50&item= "Cc1c(C#N)ccnc1O[C@@H]1CC[C@@H](C)N(C(=O)c2nscc2-n2nccn2)C1"
Result: 1.91

Ask: GET /values?readout=log10 of IC50&item= "COc1ccc(C(=O)N2C[C@H](Oc3nccc(C#N)c3C)CC[C@H]2C)c(-c2ccn(C)n2)n1"
Result: 1.81

Ask: GET /values?readout=log10 of IC50&item= "COc1c(C#N)ccnc1O[C@@H]1CC[C@@H](C)N(C(=O)c2ccc(F)cc2-c2ncccn2)C1"
Result: 1.59

Ask: GET /values?readout=log10 of IC50&item= "CCOc1ncccc1C(=O)N1C[C@H](Oc2nccc(C#N)c2C)CC[C@H]1C"
Result: 1.56

Ask: GET /values?readout=log10 of IC50&item= "CSc1ccccc1C(=O)N1C[C@H](Oc2nccc(C#N)c2C)CC[C@H]1C"
Result: 1.54
